Where no end group is shown, it is not given here.
Target or system NMDA receptor (spermine-stimulated [^3H]MK-801 binding); recorded quantity IC50.
Please give a number only; it is taken to be in nM.

IC50 measured on (A^7,10)1-13: Con G derivative, A at 7 and 10, residues 14-17 deleted (GEEELQANQALIR; ends and bridges not checked; UniProt P07231 81-97, looked up, variant E7A E10A del14-17) = 253

IC50 measured on (A^7,10,14)1-14: Con G derivative, A at 7, 10, 14, residues 15-17 deleted (GEEELQANQALIRA; ends and bridges not checked; UniProt P07231 81-97, looked up, variant E7A E10A E14A del15-17) = 232

IC50 measured on (A^7,10,14)1-15: Con G derivative, A at 7, 10, 14, residues 16-17 deleted (GEEELQANQALIRAK; ends and bridges not checked; UniProt P07231 81-97, looked up, variant E7A E10A E14A del16-17) = 34

IC50 measured on (A^7,10)1-12: Con G derivative, A at 7 and 10, residues 13-17 deleted (GEEELQANQALI; ends and bridges not checked; UniProt P07231 81-97, looked up, variant E7A E10A del13-17) = 300

IC50 measured on (A^7,10,14)1-16: Con G derivative, A at 7, 10, 14, residue 17 deleted (GEEELQANQALIRAKS; ends and bridges not checked; UniProt P07231 81-97, looked up, variant E7A E10A E14A del17-17) = 37

IC50 measured on A^7,Y^10: Con G derivative, A at position 7 and Y at position 10 (GEEELQANQYLIREKSN; ends and bridges not checked; UniProt P07231 81-97, looked up, variant E7A E10Y) = 79

IC50 measured on A^7,10,14: Con G derivative, A at positions 7, 10 and 14 (GEEELQANQALIRAKSN; ends and bridges not checked; UniProt P07231 81-97, looked up, variant E7A E10A E14A) = 88
